target: HRgpA-6H (Porphyromonas gingivalis) (UniProt P28784); assay: ELISA, coated HRgpA-6H
Criterion: Ratio OD(Variant)/OD(WT) strictly under 0.9. Met: rule met. Not met: rule not met.

Some solved cases for reference:
BINDER	CATEGORY_LABEL
KB001 mouse Fab VH L29V (Fab, V domains shown) VH: EVQLKQSGPGLVAPSQSLSITCTVSGFSVSIYSVHWVRQPPGKGLEWLGMIWGGGSSDYNSALKSRLSISKDNSKSQVFLKMNSLQTDDTAMYYCARNGNFYAMDYWGQGTSVTVSS VL: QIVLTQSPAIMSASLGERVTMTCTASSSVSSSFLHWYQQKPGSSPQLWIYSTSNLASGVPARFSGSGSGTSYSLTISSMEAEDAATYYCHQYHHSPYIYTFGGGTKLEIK	rule met
KB001 mouse Fab VL L55S (Fab, V domains shown) VH: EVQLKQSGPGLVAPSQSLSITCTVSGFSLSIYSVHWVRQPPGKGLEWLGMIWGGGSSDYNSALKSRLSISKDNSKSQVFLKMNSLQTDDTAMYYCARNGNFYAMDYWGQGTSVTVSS VL: QIVLTQSPAIMSASLGERVTMTCTASSSVSSSFLHWYQQKPGSSPQLWIYSTSNSASGVPARFSGSGSGTSYSLTISSMEAEDAATYYCHQYHHSPYIYTFGGGTKLEIK	rule met
KB001 mouse Fab VH S61C (Fab, V domains shown) VH: EVQLKQSGPGLVAPSQSLSITCTVSGFSLSIYSVHWVRQPPGKGLEWLGMIWGGGSSDYNCALKSRLSISKDNSKSQVFLKMNSLQTDDTAMYYCARNGNFYAMDYWGQGTSVTVSS VL: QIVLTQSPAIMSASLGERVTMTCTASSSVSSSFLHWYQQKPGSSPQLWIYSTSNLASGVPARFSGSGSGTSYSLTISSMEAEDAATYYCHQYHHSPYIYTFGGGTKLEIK	rule met

Alright, here's another binder for you.
Item KB001 mouse Fab VL V29I (Fab, V domains shown) VH: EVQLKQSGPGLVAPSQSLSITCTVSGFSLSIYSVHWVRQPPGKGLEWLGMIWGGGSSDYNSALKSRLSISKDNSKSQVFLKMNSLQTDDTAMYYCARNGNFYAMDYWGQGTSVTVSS VL: QIVLTQSPAIMSASLGERVTMTCTASSSISSSFLHWYQQKPGSSPQLWIYSTSNLASGVPARFSGSGSGTSYSLTISSMEAEDAATYYCHQYHHSPYIYTFGGGTKLEIK : Ratio OD(Variant)/OD(WT) beneath 0.9, strictly? rule not met

The origin of these recorded values is patent US20240400654A1.
